Data provenance: ChEMBL document CHEMBL2439955

# pIC50 per record follows
molecular target: UniProt Q07343; assay: Inhibition of recombinant human PDE4B using cAMP as substrate after 30 mins
Sequence (Q07343 whole entry): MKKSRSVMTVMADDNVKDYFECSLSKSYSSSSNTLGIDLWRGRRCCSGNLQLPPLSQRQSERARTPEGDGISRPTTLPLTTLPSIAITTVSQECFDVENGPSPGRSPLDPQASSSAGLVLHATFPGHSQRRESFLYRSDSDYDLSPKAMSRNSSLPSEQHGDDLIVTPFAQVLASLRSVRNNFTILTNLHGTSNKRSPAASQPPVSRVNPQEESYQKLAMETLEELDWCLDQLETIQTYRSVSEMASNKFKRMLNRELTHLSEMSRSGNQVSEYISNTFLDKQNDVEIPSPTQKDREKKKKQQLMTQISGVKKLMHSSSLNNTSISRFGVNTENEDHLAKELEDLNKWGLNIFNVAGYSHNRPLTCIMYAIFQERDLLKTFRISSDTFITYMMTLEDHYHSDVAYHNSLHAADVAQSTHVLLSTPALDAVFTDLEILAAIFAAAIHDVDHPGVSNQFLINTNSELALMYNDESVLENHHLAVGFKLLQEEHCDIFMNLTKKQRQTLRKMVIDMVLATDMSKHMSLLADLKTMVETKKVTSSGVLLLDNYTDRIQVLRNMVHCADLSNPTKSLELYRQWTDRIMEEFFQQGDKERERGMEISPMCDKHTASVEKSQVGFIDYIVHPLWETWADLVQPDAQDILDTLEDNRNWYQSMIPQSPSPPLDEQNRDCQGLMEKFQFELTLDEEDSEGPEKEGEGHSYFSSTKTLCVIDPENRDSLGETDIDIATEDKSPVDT
Scale: pIC50 equals -log10([C]), with [C] in mol/L.

Completed entries (count: 6):
C=C(C)c1ncc(C(N)=O)c(Nc2ccc(CC(=O)NCC(C)(C)C)cc2)n1
8.43
CCCNC(=O)Cc1ccc(Nc2nc(-c3ccccc3)ncc2C(N)=O)cc1
6.92
CC(C)(C)NC(=O)Cc1ccc(Nc2nc(-c3ccccc3)ncc2C(N)=O)cc1
6.96
CC(C)CNC(=O)Cc1ccc(Nc2nc(-c3ccccc3)nc3c2C(=O)NCC3)cc1
8.14
CC(C)(C)CNC(=O)Cc1ccc(Nc2nc(NN3CCCCC3)ncc2C(N)=O)cc1
5.19
CS(=O)(=O)NC(=O)Cc1ccc(Nc2nc(-c3ccccc3)ncc2C(N)=O)cc1
6.31

Request: Find pIC50 (UniProt Q07343) for the entry CSc1nc(-c2ccccc2)nc(Nc2ccc(CC(=O)O)cc2)c1C(N)=O
Response: 5.70

Request: Find pIC50 (UniProt Q07343) for the entry CC(C)(C)CNC(=O)Cc1ccc(Nc2nc(-c3ccoc3)ncc2C(N)=O)cc1
Response: 7.96

Request: Find pIC50 (UniProt Q07343) for the entry CC(C)(C)CNC(=O)Cc1ccc(Nc2nc(-c3ccc4[nH]ccc4c3)ncc2C(N)=O)cc1
Response: 8.09

Request: Find pIC50 (UniProt Q07343) for the entry CNC(=O)c1cnc(-c2ccccc2)nc1Nc1ccc(CC(=O)O)cc1
Response: 5.09

Request: Find pIC50 (UniProt Q07343) for the entry NC(=O)Cc1ccc(Nc2nc(-c3ccccc3)ncc2C(N)=O)cc1
Response: 6.92

Request: Find pIC50 (UniProt Q07343) for the entry Cc1nc(-c2ccccc2)nc(Nc2ccc(CC(=O)O)cc2)c1C(N)=O
Response: 5.40
